Please respond with reported GI50 for every item in the list.
test system: OVCAR-4; test: NCI tumour cell line growth inhibition, 48 h
The source made the active and inactive calls. Rule as the data show it: active = GI50 up to about 1.1 µM and inactive = higher.

What reported GI50 corresponds to CCOC(=O)C(C(=S)SC)c1nn2c(=O)cc(C)nc2s1 (stereo not drawn) on OVCAR-4?
23.7 µM (inactive)

What reported GI50 corresponds to O=C(O)CCC(O)=C1S(=O)(=O)OCCOS1(=O)=O on OVCAR-4?
> 100 µM (inactive)

What reported GI50 corresponds to COC(=O)C(=O)c1cc2ccccc2n1S(=O)(=O)c1ccccc1 on OVCAR-4?
> 100 µM (inactive)

What reported GI50 corresponds to CCN(CC)C(=O)c1cc(OC(C)C)ccc1-c1c(C)cc(OC(C)C)c(OC)c1OC on OVCAR-4?
47.5 µM (inactive)

What reported GI50 corresponds to CCOC(=O)c1[nH]c(-c2[nH]c(-c3[nH]c(-c4[nH]c(C(=O)OCC)c(C)c4C(=O)OCC)c(C(=O)OCC)c3C)c(C)c2C(=O)OCC)c(C(=O)OCC)c1C on OVCAR-4?
> 100 µM (inactive)

What reported GI50 corresponds to CC(C)(C)OC(=O)N1C2CCCC23O[C@@H]1c1cc2c(cc1C3=O)OCO2 (stereo partly drawn) on OVCAR-4?
> 100 µM (inactive)

What reported GI50 corresponds to O=C(/C=C1\Nc2ccccc2N\C1=C\C(=O)c1ccc(Cl)cc1)c1ccccc1 on OVCAR-4?
31.3 µM (inactive)

What reported GI50 corresponds to O=CN1CCN(C(=O)c2ccc(Cl)cc2Cl)C1=S on OVCAR-4?
> 100 µM (inactive)

What reported GI50 corresponds to C=CCC1=C2CCCCC2CCC1=O (stereo not drawn) on OVCAR-4?
> 100 µM (inactive)

What reported GI50 corresponds to CC1=NN=C(NCCN(C)C)C/C1=C/c1ccccc1Cl on OVCAR-4?
> 100 µM (inactive)

What reported GI50 corresponds to O=c1cc(-c2ccccc2)c2ccc(O)c(CN(CCCl)CCCl)c2o1 on OVCAR-4?
34.8 µM (inactive)

What reported GI50 corresponds to CCCCc1ccc(Nc2nc(Cl)c3c(ncn3COCCOC(C)=O)n2)cc1 on OVCAR-4?
24.8 µM (inactive)

What reported GI50 corresponds to c1ccc(C2CC(NC3CCCCC3)=Nc3ccccc3N2)cc1 (stereo not drawn) on OVCAR-4?
> 100 µM (inactive)

What reported GI50 corresponds to CN(C)c1ccc(/C=C2\C[N+](C)(C)C/C(=C\c3ccc(N(C)C)cc3)C2=O)cc1 on OVCAR-4?
21.5 µM (inactive)

What reported GI50 corresponds to CC1=CC2=C(OCO1)C(=O)c1ccccc1C2=O on OVCAR-4?
3.73 µM (inactive)

What reported GI50 corresponds to CC(C)(C)NCC(O)c1ccc(O)c(CO)n1 (stereo not drawn) on OVCAR-4?
> 100 µM (inactive)

What reported GI50 corresponds to CCOC(=O)c1ccc(NC(=O)O/N=C(/Cl)CCl)cc1 on OVCAR-4?
71.1 µM (inactive)

What reported GI50 corresponds to Cc1nc(SCC(N)=O)c2sc(=S)n(-c3ccccc3)c2n1 on OVCAR-4?
> 10 µM (inactive)

What reported GI50 corresponds to COc1ccc(C(CC(=O)c2ccc(O)cc2)C(C(=O)c2ccc(O)cc2)C(c2ccc(OC)cc2)C2C(=O)NC(=S)NC2=O)cc1 (stereo not drawn) on OVCAR-4?
18.8 µM (inactive)

What reported GI50 corresponds to O=C1CSC(c2cccc(Oc3ccccc3)c2)N1c1cc(Cl)ccc1Cl (stereo not drawn) on OVCAR-4?
17.2 µM (inactive)

What reported GI50 corresponds to Cc1noc(NS(=O)(=O)c2ccc(NC(=O)c3ccc4nc5ccccc5c(Nc5ccc(S(=O)(=O)Nc6onc(C)c6C)cc5)c4c3)cc2)c1C on OVCAR-4?
> 100 µM (inactive)

What reported GI50 corresponds to CCCCC(C)C(OC(=O)CC(CC(=O)O)C(=O)O)C(CC(C)CC(O)CCCCC(O)CC(O)C(C)N)OC(=O)CC(CC(=O)O)C(=O)O (stereo not drawn) on OVCAR-4?
> 100 µM (inactive)

What reported GI50 corresponds to Oc1c2cccc1Cc1cccc3c1OCCOCCOCCOCCOc1c(cccc1Cc1cccc(c1O)C3)C2 on OVCAR-4?
> 100 µM (inactive)

What reported GI50 corresponds to CS/C(=N\C(=S)Nc1ccccc1)Nc1ccccc1 on OVCAR-4?
26.3 µM (inactive)

What reported GI50 corresponds to O=c1cc(/N=N\c2ccc(Br)cc2)[nH]c(=S)[nH]1 on OVCAR-4?
18.1 µM (inactive)

What reported GI50 corresponds to CO[C@H]1C=C[C@@]23c4cc5c(cc4CO[C@]2(O)CN(C)[C@H]3C1)OCO5 on OVCAR-4?
> 100 µM (inactive)

What reported GI50 corresponds to CN(C)c1ccc(/C=C(\C#N)c2nc(-c3cc4ccccc4oc3=O)cs2)cc1 on OVCAR-4?
24.9 µM (inactive)

What reported GI50 corresponds to COc1cc([C@@H]2c3cc4c(cc3[C@@H](Nc3ccc(Cl)cc3C(=O)c3ccccc3)[C@H]3COC(=O)[C@H]23)OCO4)cc(OC)c1OC on OVCAR-4?
> 100 µM (inactive)

What reported GI50 corresponds to O=C1c2ccccc2C(=O)c2cc3c(cc21)C[S+]([O-])C3 on OVCAR-4?
> 100 µM (inactive)

What reported GI50 corresponds to CCCCCCCCCCCOCCC1C(C(C)OCCN2CCCC2)OC2OC(C)(C)OC21 (stereo not drawn) on OVCAR-4?
3.98 µM (inactive)

What reported GI50 corresponds to CCOC(=O)c1cc2cc(Cc3ccc4[nH]c(C(=O)OCC)cc4c3)ccc2[nH]1 on OVCAR-4?
6.7 µM (inactive)

What reported GI50 corresponds to COc1ccc(-c2c3c(n(C4OC(CO)C(O)C(O)C4O)c(=S)c2C#N)CCC3)cc1 (stereo not drawn) on OVCAR-4?
79.1 µM (inactive)

What reported GI50 corresponds to CC1=NN(C(=O)CC(=O)N(C(=O)c2ccccc2)c2ccc(Cl)cc2)C(=O)C1/N=N/c1ccc([N+](=O)[O-])cc1 (stereo not drawn) on OVCAR-4?
> 10 µM (inactive)

What reported GI50 corresponds to CC(=O)/C(=C(/Br)I)c1ccccc1 on OVCAR-4?
12.5 µM (inactive)

What reported GI50 corresponds to CSC1=N/C(=C\c2ccc(C)cc2)C(=O)N1 on OVCAR-4?
> 100 µM (inactive)

What reported GI50 corresponds to COC(=O)c1cc(C)ccc1C1CN=NC12Cc1c(C)cc(C)cc1C2=O (stereo not drawn) on OVCAR-4?
16.9 µM (inactive)

What reported GI50 corresponds to O=C1CC(CC(OCc2ccccc2)C(COCc2ccccc2)OCc2ccccc2)CC(=O)N1 (stereo not drawn) on OVCAR-4?
38.4 µM (inactive)

What reported GI50 corresponds to Cc1ccc(/C(C#N)=C/c2cccc([N+](=O)[O-])c2)cc1 on OVCAR-4?
57.8 µM (inactive)
